biological target: T1, ectodomain of human TfR1 (His10-hTfR1; SEQ ID NO:110) (human, UniProt P02786 89-760); experiment: BLI: His-tagged Fab loaded from cell supernatant on anti-Fab sensors, hTfR1 ectodomain at 3.75 µg/ml in solution, 300 s association, 300 s dissociation
T1 construct: also called ectodomain of hTfR1
T1 sequence (P02786 other isoform, or with tags, fused parts or gaps): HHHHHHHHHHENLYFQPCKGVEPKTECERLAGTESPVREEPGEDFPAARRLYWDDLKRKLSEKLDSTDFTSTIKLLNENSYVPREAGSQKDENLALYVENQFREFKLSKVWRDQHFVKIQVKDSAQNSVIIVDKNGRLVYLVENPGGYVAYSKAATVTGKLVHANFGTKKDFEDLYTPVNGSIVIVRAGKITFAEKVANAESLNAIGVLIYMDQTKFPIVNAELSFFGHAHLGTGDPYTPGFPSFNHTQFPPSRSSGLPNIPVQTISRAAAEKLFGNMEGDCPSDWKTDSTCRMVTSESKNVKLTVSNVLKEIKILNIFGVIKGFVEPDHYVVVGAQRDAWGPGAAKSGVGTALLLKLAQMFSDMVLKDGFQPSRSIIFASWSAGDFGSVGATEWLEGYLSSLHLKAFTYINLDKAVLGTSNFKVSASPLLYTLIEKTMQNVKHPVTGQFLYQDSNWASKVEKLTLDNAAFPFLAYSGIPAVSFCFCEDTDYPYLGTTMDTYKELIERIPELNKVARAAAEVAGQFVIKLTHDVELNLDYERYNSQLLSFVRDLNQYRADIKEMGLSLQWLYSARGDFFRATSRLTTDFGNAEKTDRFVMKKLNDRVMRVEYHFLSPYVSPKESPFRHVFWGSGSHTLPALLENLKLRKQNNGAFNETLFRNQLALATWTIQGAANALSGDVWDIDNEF

{"binder": "h26D3 variant HC7 Fab (Fab, V domains shown, Single-mutant His-tagged Fab; also called D56A) VH: EVQLVQSGAEVKKPGSSVKVSCKASGYIFTDYNMDWVRQAPGQGLEWIGDINPDYATTSYNEKFKGRATLTVDKSTSTAYMELSSLRSEDTAVYYCARGGYSGSSYYHPMDYWGQGTLVTVSS VL: DIQMTQSPSSVSASVGDRVTITCKSSQSLLYSTNQKNYLAWYQQKPGKAPKLLIYWASTRESGVPSRFSGSGSGTDFTLTISSLQPEDFATYYCQQYFIYPRTFGQGTKVEIK", "binding result": "binds"}
{"binder": "h26D3 variant HC13 Fab (Fab, V domains shown, Single-mutant His-tagged Fab; also called Y112A) VH: EVQLVQSGAEVKKPGSSVKVSCKASGYIFTDYNMDWVRQAPGQGLEWIGDINPDYDTTSYNEKFKGRATLTVDKSTSTAYMELSSLRSEDTAVYYCARGGYSGSSYYHPMDAWGQGTLVTVSS VL: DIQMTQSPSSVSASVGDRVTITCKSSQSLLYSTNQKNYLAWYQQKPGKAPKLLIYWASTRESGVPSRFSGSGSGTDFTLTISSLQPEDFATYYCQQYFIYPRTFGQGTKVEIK", "binding result": "binds"}
{"binder": "h26D3 variant LC2 Fab (Fab, V domains shown, Single-mutant His-tagged Fab; also called Y38A) VH: EVQLVQSGAEVKKPGSSVKVSCKASGYIFTDYNMDWVRQAPGQGLEWIGDINPDYDTTSYNEKFKGRATLTVDKSTSTAYMELSSLRSEDTAVYYCARGGYSGSSYYHPMDYWGQGTLVTVSS VL: DIQMTQSPSSVSASVGDRVTITCKSSQSLLYSTNQKNALAWYQQKPGKAPKLLIYWASTRESGVPSRFSGSGSGTDFTLTISSLQPEDFATYYCQQYFIYPRTFGQGTKVEIK", "binding result": "binds"}
